B1: glmS ribozyme (parent)
chain: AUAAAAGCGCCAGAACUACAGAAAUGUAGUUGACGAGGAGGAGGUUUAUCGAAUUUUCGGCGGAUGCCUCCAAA

- Variants of: B1
- experiment: self-cleavage kobs at 640 uM GlcN6P; higher = faster cleavage; RNA array
- cond: with glucosamine-6-phosphate
Variants at the floor of the assay were thinned out.
The reader will find reported self-cleavage kobs at 640 uM GlcN6P values listed item by item below.

[
  {
    "variant name": "G62C A64U G66U",
    "value modifier": "<",
    "self-cleavage kobs at 640 uM GlcN6P [s⁻¹]": "1e-05"
  },
  {
    "variant name": "C50G U57A A64U",
    "value modifier": "=",
    "self-cleavage kobs at 640 uM GlcN6P [s⁻¹]": 0.000127
  },
  {
    "variant name": "A52C",
    "value modifier": "=",
    "self-cleavage kobs at 640 uM GlcN6P [s⁻¹]": "1.03e-05"
  },
  {
    "variant name": "C58A C67U",
    "value modifier": "=",
    "self-cleavage kobs at 640 uM GlcN6P [s⁻¹]": "6.4e-05"
  },
  {
    "variant name": "G62C G63A",
    "value modifier": "<",
    "self-cleavage kobs at 640 uM GlcN6P [s⁻¹]": "1e-05"
  },
  {
    "variant name": "G35C U56G",
    "value modifier": "<",
    "self-cleavage kobs at 640 uM GlcN6P [s⁻¹]": "1e-05"
  },
  {
    "variant name": "A12C G29C A52C A64C",
    "value modifier": "<",
    "self-cleavage kobs at 640 uM GlcN6P [s⁻¹]": "1e-05"
  },
  {
    "variant name": "G29U U47C",
    "value modifier": "=",
    "self-cleavage kobs at 640 uM GlcN6P [s⁻¹]": "8.08e-05"
  },
  {
    "variant name": "C8U C11U C16G U55G",
    "value modifier": "<",
    "self-cleavage kobs at 640 uM GlcN6P [s⁻¹]": "1e-05"
  },
  {
    "variant name": "G41C U54C",
    "value modifier": "=",
    "self-cleavage kobs at 640 uM GlcN6P [s⁻¹]": 0.000132
  },
  {
    "variant name": "C8A G13A",
    "value modifier": "<",
    "self-cleavage kobs at 640 uM GlcN6P [s⁻¹]": "1e-05"
  },
  {
    "variant name": "U46G C50A C67G",
    "value modifier": "=",
    "self-cleavage kobs at 640 uM GlcN6P [s⁻¹]": 0.000631
  },
  {
    "variant name": "U31C G32A U65G",
    "value modifier": "=",
    "self-cleavage kobs at 640 uM GlcN6P [s⁻¹]": "5.75e-05"
  },
  {
    "variant name": "G62U U69G",
    "value modifier": "=",
    "self-cleavage kobs at 640 uM GlcN6P [s⁻¹]": "3.47e-05"
  },
  {
    "variant name": "G7C G29C",
    "value modifier": "<",
    "self-cleavage kobs at 640 uM GlcN6P [s⁻¹]": "1e-05"
  },
  {
    "variant name": "G29A A39C C61G",
    "value modifier": "<",
    "self-cleavage kobs at 640 uM GlcN6P [s⁻¹]": "1e-05"
  },
  {
    "variant name": "C16U A39G G40A A42G G43A U45G",
    "value modifier": "=",
    "self-cleavage kobs at 640 uM GlcN6P [s⁻¹]": 0.00638
  },
  {
    "variant name": "C34U U57C",
    "value modifier": "<",
    "self-cleavage kobs at 640 uM GlcN6P [s⁻¹]": "1e-05"
  },
  {
    "variant name": "A39C U46G",
    "value modifier": "=",
    "self-cleavage kobs at 640 uM GlcN6P [s⁻¹]": 0.000224
  },
  {
    "variant name": "A39U A53G",
    "value modifier": "=",
    "self-cleavage kobs at 640 uM GlcN6P [s⁻¹]": 0.0052
  },
  {
    "variant name": "G37U G51A G66C",
    "value modifier": "<",
    "self-cleavage kobs at 640 uM GlcN6P [s⁻¹]": "1e-05"
  },
  {
    "variant name": "A42G G63U",
    "value modifier": "<",
    "self-cleavage kobs at 640 uM GlcN6P [s⁻¹]": "1e-05"
  }
]

Sourced from the supplement of paper PMC7125110
